Please provide measured total FIC50 for the entries that follow.
Test system: Mycobacterium tuberculosis Erdman (autoluminescent)
Test: total FIC50 (Loewe) at 50% inhibition, three-drug combination (log2); higher = more antagonistic
Conditions: in vitro model: butyrate; time point: constant (~7 days, model-specific)
Numbers only.

Some compounds with recorded total FIC50:
{"compound": "COc1nc2ccc(Br)cc2cc1[C@@H](c1ccccc1)[C@@](O)(CCN(C)C)c1cccc2ccccc12 [bedaquiline] + CC(C)/N=c1\\cc2n(-c3ccc(Cl)cc3)c3ccccc3nc-2cc1Nc1ccc(Cl)cc1 [clofazimine] + CO[C@H]1/C=C/O[C@@]2(C)Oc3c(C)c(O)c4c(O)c(c(/C=N/N5CCN(C)CC5)c(O)c4c3C2=O)NC(=O)/C(C)=C\\C=C\\[C@H](C)[C@H](O)[C@@H](C)[C@@H](O)[C@@H](C)[C@H](OC(C)=O)[C@@H]1C [rifampicin]", "assay.target": "Mycobacterium tuberculosis Erdman (autoluminescent)", "recorded.number": 0.164}
{"compound": "NNC(=O)c1ccncc1 [isoniazid] + COc1c(N2C[C@@H]3CCCN[C@@H]3C2)c(F)cc2c(=O)c(C(=O)O)cn(C3CC3)c12 [moxifloxacin] + CO[C@H]1/C=C/O[C@@]2(C)Oc3c(C)c(O)c4c(O)c(c(/C=N/N5CCN(C6CCCC6)CC5)c(O)c4c3C2=O)NC(=O)/C(C)=C\\C=C\\[C@H](C)[C@H](O)[C@@H](C)[C@@H](O)[C@@H](C)[C@H](OC(C)=O)[C@@H]1C [rifapentine]", "assay.target": "Mycobacterium tuberculosis Erdman (autoluminescent)", "recorded.number": 0.673}

Consider now this further compound.
May I ask what total FIC50 has been recorded for NNC(=O)c1ccncc1 [isoniazid] + O=[N+]([O-])c1cn2c(n1)OC[C@@H](OCc1ccc(OC(F)(F)F)cc1)C2 [pretomanid] + CO[C@H]1/C=C/O[C@@]2(C)Oc3c(C)c(O)c4c(O)c(c(/C=N/N5CCN(C6CCCC6)CC5)c(O)c4c3C2=O)NC(=O)/C(C)=C\C=C\[C@H](C)[C@H](O)[C@@H](C)[C@@H](O)[C@@H](C)[C@H](OC(C)=O)[C@@H]1C [rifapentine] ?
2.86

====

Test system: Mycobacterium tuberculosis Erdman (autoluminescent)
Assay: Einf, fitted maximum growth inhibition of three-drug combination (fraction); higher = stronger maximal inhibition
Conditions: in vitro model: acidic pH 5.7; time point: terminal (~4-5 doublings, model-specific)
experimental.readout: Einf
Give bare numbers.

Some molecules with recorded Einf:
{"molecule": "CC[C@@H](CO)NCCN[C@@H](CC)CO [ethambutol] + NNC(=O)c1ccncc1 [isoniazid] + CO[C@H]1/C=C/O[C@@]2(C)Oc3c(C)c(O)c4c(O)c(c(/C=N/N5CCN(C6CCCC6)CC5)c(O)c4c3C2=O)NC(=O)/C(C)=C\\C=C\\[C@H](C)[C@H](O)[C@@H](C)[C@@H](O)[C@@H](C)[C@H](OC(C)=O)[C@@H]1C [rifapentine]", "Einf": 0.974}
{"molecule": "CC(C)/N=c1\\cc2n(-c3ccc(Cl)cc3)c3ccccc3nc-2cc1Nc1ccc(Cl)cc1 [clofazimine] + CC[C@@H](CO)NCCN[C@@H](CC)CO [ethambutol] + CO[C@H]1/C=C/O[C@@]2(C)Oc3c(C)c(O)c4c(O)c(c(/C=N/N5CCN(C)CC5)c(O)c4c3C2=O)NC(=O)/C(C)=C\\C=C\\[C@H](C)[C@H](O)[C@@H](C)[C@@H](O)[C@@H](C)[C@H](OC(C)=O)[C@@H]1C [rifampicin]", "Einf": 0.973}

May I ask what Einf has been recorded for NNC(=O)c1ccncc1 [isoniazid] + CC(=O)NC[C@H]1CN(c2ccc(N3CCOCC3)c(F)c2)C(=O)O1 [linezolid] + CO[C@H]1/C=C/O[C@@]2(C)Oc3c(C)c(O)c4c(O)c(c(/C=N/N5CCN(C)CC5)c(O)c4c3C2=O)NC(=O)/C(C)=C\C=C\[C@H](C)[C@H](O)[C@@H](C)[C@@H](O)[C@@H](C)[C@H](OC(C)=O)[C@@H]1C [rifampicin] ?
0.972

This collection of values is drawn from the supplement of paper PMC8617591.
